Measured Ki, listed per entry for reference.
- systemUnderTest: GABA A receptor α5β3γ2 (hα5) (Homo sapiens, UniProt P18507+P31644)
- Construct: expressed in transfected cells; host or cells: HEK293 (transiently transfected), membrane preparation
- protocol: [3H]flumazenil competition binding assay, human GABA A α5β3γ2
- conditions: displacement of [3H]flumazenil (0.5 nM) from HEK293 cell membranes expressing α5β3γ2; means of two determinations; read-out: Ki[nM] hα5
Answers without a unit are incomplete; give the number and then its unit.

Cc1onc(-c2ccc(F)cc2)c1-c1cn(-c2ccc(C#N)cc2)cn1 13.2 nM
Cc1onc(-c2ccccc2)c1-c1cn(-c2ccc([N+](=O)[O-])cc2)c(COCc2ccccc2F)n1 12.7 nM
Cc1onc(-c2ccc(F)cc2)c1-c1cn(-c2cccc(F)c2)cn1 33.7 nM

We now examine a further compound.
Challenge: May I ask what Ki has been recorded for Cc1onc(-c2ccccc2)c1-c1cn(-c2ccc([N+](=O)[O-])cc2)c(COCc2cccc(F)c2)n1 ?
Response given: 17 nM

----------
- systemUnderTest: GABA A receptor α5β3γ2 (hα5) (Homo sapiens, UniProt P18507+P31644)
- Construct: expressed in transfected cells; host or cells: HEK293 (transiently transfected), membrane preparation
- protocol: [3H]flumazenil competition binding assay, human GABA A α5β3γ2
readoutLabel: Ki (µM)
Express the result in µM but write the number alone.

Challenge: Please tell me: Ki of C#CCNC(=O)c1ccc(-n2cnc(-c3c(-c4ccccc4)noc3C)c2)cc1 , system GABA A receptor α5β3γ2 (hα5) (Homo sapiens, UniProt P18507+P31644)?
Response given: 0.0132
